Data credit: ChEMBL document CHEMBL1145775

System: NCI-H446
Experiment: Inhibitory concentration against lung H446 cell line
Type: functional, cell-based
Settings: Homo sapiens
Value Type: IC50 (nM)

Sample records with IC50:
| Smiles Str | IC50 / nM |
| --- | --- |
| Nc1ccccc1NC(=O)c1ccc(CNC(=O)OCc2cccnc2)cc1 | 1000 |
| CC(/C=C/C(=O)NO)=C\[C@@H](C)C(=O)c1ccc(N(C)C)cc1 | 1500 |
| Nc1ccccc1NC(=O)/C=C/c1ccc(NS(=O)(=O)c2ccc(-c3ccccc3)cc2)cc1 | 8000 |
| Cc1ccc(NS(=O)(=O)c2ccc(/C=C/C(=O)Nc3ccccc3N)cc2)cc1 | 2000 |

1. COc1ccc(S(=O)(=O)Nc2ccc(/C=C/C(=O)Nc3ccccc3N)cc2)cc1
2. Cc1ccc(S(=O)(=O)Nc2ccc(/C=C/C(=O)Nc3ccccc3N)cc2)cc1
// compare measured IC50 between 1 and 2 ; output the lower one # respond with the chosen item's label
2
(2: 1000 nM, 1: 2000 nM)
